- target-under-test: DNA gyrase (Escherichia coli) (UniProt P0AES6+P0AES4)
- experimental-details: Inhibition of Escherichia coli DNA gyrase assessed as residual activity at 1 uM using biotinylated oligonucleotide as substrate incubated for 30 mins in presence of ATP by fluorescence-based microplate reader assay relative to control
- Assay type: protein-complex assay
Assign 1 whenever Activity does not fall below 90%; assign -1 whenever it does.

Take a look at these entries with their results.
>  <smiles-input>
Cc1[nH]c(C(=O)Nc2ccc(S(N)(=O)=O)cc2)c(Cl)c1Cl

>  <classification>
-1

$$$$
>  <smiles-input>
COC(=O)[C@H](C)NC(=O)c1ccc(NC(=O)c2[nH]c(C)c(Cl)c2Cl)c(OC2CCN(C(=O)OC(C)(C)C)CC2)c1

>  <classification>
-1

$$$$

Ask | In plain terms: is recorded Activity at least 90% for COC(=O)CNC(=O)c1ccc(NC(=O)c2[nH]c(C)c(Cl)c2Cl)c(O[C@H]2CCN(C(=O)OC(C)(C)C)C2)c1 ?
Reply | 1

Ask | Is it the case that COC(=O)[C@@H](C)NC(=O)c1ccc(NC(=O)c2[nH]c(C)c(Cl)c2Cl)c(OC(C)C)c1 has Activity reaching or exceeding 90%?
Reply | -1
